The reported numbers originate from paper PMC7922224.

# System: K. pneumoniae ATCC 13883
PROPERTY NAME: MIC

// known answers, use as guide
O=C(Nc1ccccc1)Nc1ccc(F)c(F)c1 [1fj, 1-(3,4-Difluorophenyl)-3-phenylurea]    256 µg/mL
Cc1ccccc1NC(=O)Nc1ccccc1 [1fg, 1-(2-Methylphenyl)-3-phenylurea]    256 µg/mL

Task: Fill in the blank: the reported MIC of Cc1ccccc1NC(=O)Nc1ccc(F)c(F)c1 [1gj] is ____.
Result: > 256 µg/mL

Task: Fill in the blank: the reported MIC of Cc1ccccc1NC(=O)Nc1ccc(Cl)c(Cl)c1 [1eg] is ____.
Result: > 256 µg/mL

Task: Fill in the blank: the reported MIC of Cc1ccc(NC(=O)Nc2ccc(Cl)c(Cl)c2)cc1 [1ae, 1-(3,4-Dichlorophenyl)-3-p-tolylurea] is ____.
Result: > 256 µg/mL

Task: Fill in the blank: the reported MIC of O=C(Nc1ccc(Cl)cc1)Nc1ccc(Cl)c(Cl)c1 [1ce (TCC), reference compound] is ____.
Result: 256 µg/mL
